B1: KRT18 (parent)
chain: KSQDLAKIMADIRAQYDELARKNR

# Variants of: B1
# test_description: protein stability index of a GFP-peptide fusion (GPS, HEK-293T) (PSI 1-6); higher = more stable;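 note: lentivirally expressed fusions sorted by FACS into six bins by GFP to DsRed ratio, PSI derived from sequencing read proportions per bin multiplied by bin number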
# run_parameters: c terminus: a fixed tail appended
Recorded protein stability index values for a group of variants are listed next.
Give the figure only, with no unit attached.

Past entries and their recorded results:
| mutation_string | protein stability index |
| --- | --- |
| M9P | 4.67 |
| Q3S | 2.69 |
| L19F | 2.46 |
| I8L | 3.13 |
| R24A | 3.33 |

**Query** Look up protein stability index for this variant: A20P
**Result** 2.98

**Query** What do we get for K1I ?
**Result** 2.91

**Query** What do we get for D4H ?
**Result** 3.03

**Query** What do we get for E18L ?
**Result** 2.38

**Query** What do we get for R21M ?
**Result** 2.83

**Query** What do we get for R24D ?
**Result** 3.81
